protocol-summary: HepG2 liver cancer cell viability effects, profiling panel, resazurin fluorescence, 24 h, PK04 Diversity Set (AID 1172); further: test concentration not given here
measurement-context: higher = more signal
Parameter: z-score. Scope: all listed entries.
readout-label: z-score

> print(dat)
                              line.notation  number
1  O=C1O[C@H](c2ccccc2)[C@H](c2ccccc2)N2[C@H]1[C@@H](C(=O)Nc1nc3ccccc3s1)[C@]1(C(=O)Nc3ccc(C#CCCO)cc31)[C@H]2c1ccccc1OCCO   0.253
2  CC(C)(C)OC(=O)CC[C@@]1(C(=O)NCc2ccccc2)N=C(c2ccc(OCCCO)cc2)O[C@@H]1c1ccccc1CN=[N+]=[N-]  -0.169
3  C=C(C1=CCN(S(=O)(=O)c2ccc(C)cc2)C1)[C@@H](OC(C)=O)[C@@H]1CCCN1S(=O)(=O)c1ccccc1[N+](=O)[O-]   0.174

====

protocol-summary: RPMI8226 myeloma cell viability, profiling panel, resazurin fluorescence, basal, 24 h, PK04 Diversity Set (AID 1180);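 further: RPMI8826 multiple myeloma cell line at 5000 cells per well; test concentration not given here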
measurement-context: higher = more signal
Use class 1 when the recorded z-score is no lower than 0.3; use class 0 when it is lower.

line-notation	class-assignment
CO[C@H]1O[C@H](CO)[C@@H](OC(=O)Nc2ccccc2)[C@H](OC(=O)Nc2ccccc2-c2ccccc2)[C@@H]1OC(=O)Nc1ccccc1-c1ccccc1	class 0
O=C1O[C@H](c2ccccc2)[C@H](c2ccccc2)N2[C@H]1[C@@H](C(=O)NC[C@H](O)c1ccccc1)[C@]1(C(=O)Nc3ccc(C#CC4(O)CCCCCC4)cc31)[C@H]2c1ccc(O)cc1	class 1
C=C(/C(=C/C[C@H](OC(C)=O)c1cccc(OCCO)c1)c1cc(C(=O)OC)ccc1OC)C(C)C	class 1
C=C(C1=CCN(S(=O)(=O)c2ccc(C)cc2)C1)[C@@H](OC(C)=O)[C@@H]1CCCN1S(=O)(=O)c1ccccc1[N+](=O)[O-]	class 0
O=C(NCc1ccccc1)[C@@H]1c2ccccc2C(=O)N(Cc2ccccc2Cl)[C@H]1c1ccc(CO)cc1	class 1
C=CC[C@@]1(C(=O)NCc2ccccc2)N=C(c2ccc(OCCCO)cc2)O[C@@H]1c1ccccc1	class 0
Cc1ccc(S[C@]2(C(=O)NCCN3CCOCC3)CC(=O)N(Cc3cc(C(F)(F)F)cc(C(F)(F)F)c3)[C@@H]2c2ccc(CO)cc2)cc1	class 1

====

measured-target: Pro-neuregulin-1, membrane-bound isoform (Homo sapiens) (UniProt Q02297)
Sequence (Q02297 whole entry, looked up, canonical isoform): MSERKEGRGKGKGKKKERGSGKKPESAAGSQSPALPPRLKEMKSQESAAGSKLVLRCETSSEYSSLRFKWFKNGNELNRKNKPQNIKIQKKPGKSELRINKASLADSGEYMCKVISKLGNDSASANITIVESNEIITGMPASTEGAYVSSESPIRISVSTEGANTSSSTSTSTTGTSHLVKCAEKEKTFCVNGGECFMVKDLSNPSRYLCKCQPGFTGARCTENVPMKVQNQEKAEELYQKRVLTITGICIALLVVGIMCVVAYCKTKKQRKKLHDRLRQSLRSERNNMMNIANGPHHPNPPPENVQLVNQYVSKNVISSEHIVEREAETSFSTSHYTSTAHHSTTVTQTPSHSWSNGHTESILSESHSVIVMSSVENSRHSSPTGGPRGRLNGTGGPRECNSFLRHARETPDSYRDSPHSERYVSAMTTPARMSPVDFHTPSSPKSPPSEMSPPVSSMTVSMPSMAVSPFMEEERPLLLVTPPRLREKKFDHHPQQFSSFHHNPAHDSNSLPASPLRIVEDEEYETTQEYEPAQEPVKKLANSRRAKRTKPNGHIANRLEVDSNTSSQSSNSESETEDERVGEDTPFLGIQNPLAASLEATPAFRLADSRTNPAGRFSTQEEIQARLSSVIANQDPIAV
protocol-summary: NRG1 binders on small-molecule microarrays, primary screen, psychiatric disease protein project, biochemical, small-molecule microarray, fluorescence 635/667 (AID 1075);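 further: score combines 667 nm spot fluorescence with signal to noise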
measurement-context: NRG1 binding, 635 nm fluorescence, higher = more signal
readout-label: composite z-score

> print(dat)
                              line.notation  number
1  C=C(/C(=C/C[C@H](OC(=O)c1ccncc1)c1cccc(OCCO)c1)c1cc(C(=O)OC)ccc1OC)C(C)C  -0.389
2  COc1ccc(/C=C/C(=O)c2cccc(OCC(=O)OC(C)(C)C)c2)cc1   0.421
3  C[N+](C)(C)CCCC[C@@H]1NC(=O)[C@@H]2C[C@H](C(=O)NCCCCCNC(=O)CS)[C@H](c3ccc(O)cc3)N2C1=O    1.94
4  COCCCNC(=O)[C@@]1(C)c2ccccc2C(=O)N(Cc2cc(F)cc(C(F)(F)F)c2)[C@H]1c1ccc(CO)cc1   0.595
